Answer each item with its documented Ratio EC50.
experiment: Resistant factor, ratio of EC50 for antiviral activity against HIV-1 IIIB harboring reverse transcriptase Y181C mutant to EC50 for antiviral activity against wild type HIV-1 IIIB; assay type: functional
# respond with the number and nothing more

Quick one: Ratio EC50 for "CCCNC(=O)c1cnc(Nc2ccc(C#N)cc2)nc1Oc1c(C)cc(-c2ccc(C#N)cc2)cc1C" ?
15

Quick one: Ratio EC50 for "N#Cc1ccc(Nc2ncc(C(N)=O)c(Oc3c(F)cc(-c4ccc(C#N)cc4)cc3F)n2)cc1" ?
362

Quick one: Ratio EC50 for "Cc1cc(-c2ccc(C#N)cc2)cc(C)c1Oc1nc(Nc2ccc(C#N)cc2)ncc1C(=O)NCC1CC1" ?
11

Quick one: Ratio EC50 for "Cc1cc(-c2ccc(C#N)cc2)cc(C)c1Oc1nc(Nc2ccc(C#N)cc2)ncc1C(=O)NC1CC1" ?
14

Quick one: Ratio EC50 for "N#Cc1ccc(Nc2ncc(C(N)=O)c(Oc3ccc(-c4ccc(C#N)cc4)cc3Cl)n2)cc1" ?
1261

Quick one: Ratio EC50 for "Cc1cc(-c2ccc(C#N)cc2)cc(C)c1Oc1nc(Nc2ccc(C#N)cc2)ncc1C(=O)NC1CCCC1" ?
23

Quick one: Ratio EC50 for "Cc1cc(-c2ccc(C#N)cc2)cc(C)c1Oc1nc(Nc2ccc(C#N)cc2)ncc1C(N)=O" ?
13

Quick one: Ratio EC50 for "CONC(=O)c1cnc(Nc2ccc(C#N)cc2)nc1Oc1c(C)cc(-c2ccc(C#N)cc2)cc1C" ?
13

Quick one: Ratio EC50 for "Cc1cc(-c2ccc(C#N)cc2)cc(C)c1Oc1nc(Nc2ccc(C#N)cc2)ncc1C(=O)NCCO" ?
8.8

Quick one: Ratio EC50 for "Cc1cc(-c2ccc(C#N)cc2)cc(C)c1Oc1nc(Nc2ccc(C#N)cc2)ncc1C(=O)NC1CCCCC1" ?
26

Quick one: Ratio EC50 for "CCNC(=O)c1cnc(Nc2ccc(C#N)cc2)nc1Oc1c(C)cc(-c2ccc(C#N)cc2)cc1C" ?
10

Quick one: Ratio EC50 for "Cc1cc(-c2ccc(C#N)cc2)cc(C)c1Oc1nc(Nc2ccc(C#N)cc2)ncc1C(=O)NC(C)C" ?
9

Quick one: Ratio EC50 for "CNC(=O)c1cnc(Nc2ccc(C#N)cc2)nc1Oc1c(C)cc(-c2ccc(C#N)cc2)cc1C" ?
8.2

Quick one: Ratio EC50 for "Cc1cc(-c2ccc(C#N)cc2)cc(C)c1Oc1nc(Nc2ccc(C#N)cc2)ncc1C(=O)NC1CCC1" ?
16

Quick one: Ratio EC50 for "CCONC(=O)c1cnc(Nc2ccc(C#N)cc2)nc1Oc1c(C)cc(-c2ccc(C#N)cc2)cc1C" ?
8.2

Quick one: Ratio EC50 for "COc1cc(-c2ccc(C#N)cc2)ccc1Oc1nc(Nc2ccc(C#N)cc2)ncc1C(N)=O" ?
7.6

====

assay: Cytotoxicity against human MT4 cells assessed as reduction in cell viability incubated for 5 days by MTT assay; format: toxicity, cell-based; conditions: time 5 day
Answer each item with its documented CC50 at 120 h.

Quick one: CC50 at 120 h for "O=C1Nc2ccc(Cl)cc2[C@@](C#CC2CC2)(C(F)(F)F)O1" ?
> 6.34 µM

Quick one: CC50 at 120 h for "C#CCNC(=O)c1cnc(Nc2ccc(C#N)cc2)nc1Oc1c(C)cc(-c2ccc(C#N)cc2)cc1C" ?
145 µM

Quick one: CC50 at 120 h for "COCCNC(=O)c1cnc(Nc2ccc(C#N)cc2)nc1Oc1c(C)cc(-c2ccc(C#N)cc2)cc1C" ?
161 µM

Quick one: CC50 at 120 h for "Cc1cc(-c2ccc(C#N)cc2)ccc1Oc1nc(Nc2ccc(C#N)cc2)ncc1C(N)=O" ?
> 280 µM

Quick one: CC50 at 120 h for "COc1cc(-c2ccc(C#N)cc2)ccc1Oc1nc(Nc2ccc(C#N)cc2)ncc1C(N)=O" ?
> 276 µM

Quick one: CC50 at 120 h for "N#Cc1ccc(Nc2nccc(Oc3ccc4cc(C#N)ccc4c3Br)n2)cc1" ?
283 µM

Quick one: CC50 at 120 h for "Cc1cc(-c2ccc(C#N)cc2)cc(C)c1Oc1nc(Nc2ccc(C#N)cc2)ncc1C(=O)NC1CCCCC1" ?
> 230 µM

Quick one: CC50 at 120 h for "CCONC(=O)c1cnc(Nc2ccc(C#N)cc2)nc1Oc1c(C)cc(-c2ccc(C#N)cc2)cc1C" ?
> 248 µM

Quick one: CC50 at 120 h for "Cc1cc(-c2ccc(C#N)cc2)cc(C)c1Oc1nc(Nc2ccc(C#N)cc2)ncc1C(N)=O" ?
> 43.4 µM
